The reported numbers originate from the supplement of paper PMC6757056.

B1: library; a variant is named by its letters at N, in order (parent)
chain: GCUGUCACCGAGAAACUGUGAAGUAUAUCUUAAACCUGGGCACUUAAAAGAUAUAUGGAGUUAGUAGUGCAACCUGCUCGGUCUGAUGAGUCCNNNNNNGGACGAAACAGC

- Variants of: B1
- test: normalized RNA/DNA level with ligand (relative to sTRSVctl = 100) (log10 (% of sTRSVctl)); HEK293T; ligand: cyclic di-GMP (c-di-GMP-II aptamer); ligand concentration (+) RNA-Seq: 1 mM; higher = less ribozyme self-cleavage, higher mRNA level
- study-conditions: reporter: mCherry (pCS4076), ligand present: yes
measured-metric: normalized RNA/DNA level with ligand (log10)

{"variant-designation": "AAACAC", "result": 1.75}
{"variant-designation": "GGCCCA", "result": 1.88}
{"variant-designation": "UCAAGG", "result": 1.89}
{"variant-designation": "AGUUUG", "result": 1.77}
{"variant-designation": "GCCAUU", "result": 1.78}

Hello, I would appreciate it if you could give normalized RNA/DNA level with ligand (log10) for each entry below.
1. AUGAUU
2. AUAUAU
3. GUGGGC
4. CACGGC

Result:
1.62
1.83
1.68
1.89
